Data origin, for the record: patent US20120014876A1

- assayed.target: rat frizzled-2 receptor (rat, UniProt Q08464 29-570)
- Sequence (Q08464 29-570): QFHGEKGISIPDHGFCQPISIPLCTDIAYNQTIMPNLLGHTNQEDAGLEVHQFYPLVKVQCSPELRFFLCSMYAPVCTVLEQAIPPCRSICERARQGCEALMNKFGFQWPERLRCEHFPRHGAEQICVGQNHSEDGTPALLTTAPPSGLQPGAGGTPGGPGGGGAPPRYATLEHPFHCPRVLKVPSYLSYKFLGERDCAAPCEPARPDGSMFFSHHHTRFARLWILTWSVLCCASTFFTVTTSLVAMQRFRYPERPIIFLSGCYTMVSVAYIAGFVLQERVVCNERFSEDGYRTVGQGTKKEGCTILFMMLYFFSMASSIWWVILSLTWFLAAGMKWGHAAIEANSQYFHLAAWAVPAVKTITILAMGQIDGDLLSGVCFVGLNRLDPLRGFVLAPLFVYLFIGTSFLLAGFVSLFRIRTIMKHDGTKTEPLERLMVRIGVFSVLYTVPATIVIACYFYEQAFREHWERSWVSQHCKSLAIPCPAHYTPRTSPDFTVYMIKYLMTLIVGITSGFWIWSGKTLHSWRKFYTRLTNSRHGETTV
- method: cell-based or functional assay
Where no end group is shown, it is not given here. alkyl = not defined here
Examples of binders with documented % of inhibition of Wnt3a-induced luciferase activity, peptide 1.10^-9 M follow.
measured.property: % of inhibition of Wnt3a-induced luciferase activity, peptide 1.10^-9 M (%)

1) Ac-CNKTSEGMDGCEL-NH2 (cysteine pairing not given here, Linear form, no disulfide bridge between the two cysteines; also called antagonist UM206) [Peptide UM206] : 75.1
2) CNKTSAGMDGCEL-NH2 (cysteine pairing not given here) [UM206 (6 E = A)] : 84.7
3) SNKTSEGMDGSEL [UM206 (C = S)] : 17
4) CNKTSEGMDGCAA-NH2 (cysteine pairing not given here) [UM206 (12-13 EL = AA)] : 74.3
5) CNKASEGMDGCEL-NH2 (cysteine pairing not given here) [UM206 (4 T = A)] : 59.4
6) C(alkyl)NKTSEGMDGC(alkyl)EL-NH2 (not fully specified (N-terminus); reading uncertain; also: alkyl group not given here) [UM206 (C = C-alkyl)] : 12.4
